STUDY_SYSTEM: human thyroid hormone receptor α1 (ThRα1) (Homo sapiens)
Sequence (P10827 1-410 isoform P10827-2): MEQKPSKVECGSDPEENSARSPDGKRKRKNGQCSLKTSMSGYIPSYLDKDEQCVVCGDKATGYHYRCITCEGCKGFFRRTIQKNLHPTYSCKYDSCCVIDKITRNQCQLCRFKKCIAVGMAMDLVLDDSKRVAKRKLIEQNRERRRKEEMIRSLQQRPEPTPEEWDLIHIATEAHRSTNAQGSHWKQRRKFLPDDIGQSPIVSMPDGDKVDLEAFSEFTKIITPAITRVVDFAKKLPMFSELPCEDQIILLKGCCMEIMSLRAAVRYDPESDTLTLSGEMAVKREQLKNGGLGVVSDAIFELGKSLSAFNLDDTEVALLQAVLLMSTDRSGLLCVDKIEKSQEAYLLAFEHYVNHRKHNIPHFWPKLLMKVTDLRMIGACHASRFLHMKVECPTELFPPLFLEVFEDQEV
READOUT_LABEL: IC50 (µM)
Note: unit µM is implicit; provide only the numeric part.

• CCCCc1oc2ccc(NC(=O)c3ccc(F)cc3)cc2c1C(=O)c1cc(I)c(OCC(=O)O)c(I)c1 [Example 9] = 3.31

INPUT: State its IC50 on human thyroid hormone receptor α1 (ThRα1) (Homo sapiens): COc1ccc(C(=O)Nc2ccc3oc(C(C)C)c(C(=O)c4cc(Br)c(OCC(=O)O)c(Br)c4)c3c2)cc1 [Example 14]
OUTPUT: 3.63

---

List of pIC50 tested on human thyroid hormone receptor β1 (ThRβ1) (Homo sapiens).
Sequence (P10828 whole entry): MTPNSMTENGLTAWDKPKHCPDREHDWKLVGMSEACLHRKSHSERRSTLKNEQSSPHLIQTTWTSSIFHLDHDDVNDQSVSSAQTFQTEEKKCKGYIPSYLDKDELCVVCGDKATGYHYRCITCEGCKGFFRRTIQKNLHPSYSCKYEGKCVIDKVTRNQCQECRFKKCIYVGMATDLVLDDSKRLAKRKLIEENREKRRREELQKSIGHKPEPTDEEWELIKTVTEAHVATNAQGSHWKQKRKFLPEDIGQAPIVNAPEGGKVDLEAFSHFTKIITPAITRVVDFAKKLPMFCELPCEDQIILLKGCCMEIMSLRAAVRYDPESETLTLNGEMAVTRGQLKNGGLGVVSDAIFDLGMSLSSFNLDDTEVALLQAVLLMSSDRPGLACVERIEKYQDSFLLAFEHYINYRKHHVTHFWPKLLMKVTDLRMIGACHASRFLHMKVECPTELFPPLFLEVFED
// pIC50: -log10(molar conc.)

- CC(C)c1oc2ccc(NC(=O)c3ccc(O)cc3)cc2c1C(=O)c1cc(Br)c(OCC(=O)O)c(Br)c1: 5.48
- CC(C)c1oc2ccc(NS(=O)(=O)C(F)(F)F)cc2c1C(=O)c1cc(I)c(OCC(=O)O)c(I)c1: 5.43
- CCCCc1oc2ccc(NC(=O)c3ccc(O)cc3)cc2c1C(=O)c1cc(I)c(OCC(=O)O)c(I)c1: 5.69
- CCCCc1oc2ccc(NC(=O)C(C)C)cc2c1C(=O)c1cc(I)c(OCC(=O)O)c(I)c1: 5.18
- CC(C)c1oc2ccc(NC(=O)c3ccc(O)cc3)cc2c1C(=O)c1cc(I)c(OCC(=O)O)c(I)c1: 5.74

INPUT: human thyroid hormone receptor β1 (ThRβ1) (Homo sapiens) / pIC50 / CCCCc1oc2ccc(NC(=O)c3ccc(OC)cc3)cc2c1C(=O)c1cc(I)c(OCC(=O)O)c(I)c1 : value?
OUTPUT: 5.82

INPUT: Item: COc1ccc(C(=O)Nc2ccc3oc(C(C)C)c(C(=O)c4cc(Br)c(OCC(=O)O)c(Br)c4)c3c2)cc1
OUTPUT: 5.46

INPUT: What would you report for CCCCc1oc2ccc(NC(=O)Nc3ccc(OC)cc3)cc2c1C(=O)c1cc(I)c(OCC(=O)O)c(I)c1 ?
OUTPUT: 5.43
